Recorded values, source patent US20200339690A1.

Biological target: T1, human LILRB2 expressed on cells (human, UniProt Q8N423 22-597)
T1 construct: CHO-s cells over-expressing full-length human LILRB2, or primary human macrophages and dendritic cells; also called hLILRB2-CHO-s; hLILRB2+ CHO-s
T1 sequence (Q8N423 other isoform, or with tags, fused parts or gaps limits assumed): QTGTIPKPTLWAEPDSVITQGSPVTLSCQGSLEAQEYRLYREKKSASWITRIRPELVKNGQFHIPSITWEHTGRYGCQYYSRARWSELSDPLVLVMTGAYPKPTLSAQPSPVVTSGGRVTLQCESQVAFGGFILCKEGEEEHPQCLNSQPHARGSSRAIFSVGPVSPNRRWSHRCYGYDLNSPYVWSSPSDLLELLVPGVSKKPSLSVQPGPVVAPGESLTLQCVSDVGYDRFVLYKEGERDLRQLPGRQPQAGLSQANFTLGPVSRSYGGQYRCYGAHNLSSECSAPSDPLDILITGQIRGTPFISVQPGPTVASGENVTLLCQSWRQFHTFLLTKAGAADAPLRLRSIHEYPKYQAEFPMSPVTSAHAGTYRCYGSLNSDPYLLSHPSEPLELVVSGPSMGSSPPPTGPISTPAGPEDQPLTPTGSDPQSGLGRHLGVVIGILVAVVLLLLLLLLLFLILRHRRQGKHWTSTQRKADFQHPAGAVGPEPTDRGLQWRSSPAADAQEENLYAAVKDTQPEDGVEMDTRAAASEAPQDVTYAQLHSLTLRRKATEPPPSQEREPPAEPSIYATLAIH
Assay: blocking of HLA-G tetramer on LILRB2 CHOs, flow cytometry, mAb 10 ug/mL
MEASURED QUANTITY: HLA-G:LILRB2 CHOs blocking (% blocked)
Answer in % blocked, number only, no unit symbol.

Q: Indicate its recorded HLA-G:LILRB2 CHOs blocking (% blocked); the binder in question is J-11 (antibody, human IgG4 S228P, kappa, V domains shown, Human IgG4 chimera of murine origin; also called J-11.h) VH: QVQLQQSGAELMKPGASVKLSCKATGYILTGYWIEWVKQRPGHGLEWIGEILPGSGSTNYNENFKGKATFTADTSSNTAYMQLSSLTTEDSAIYYCARAVLGYFDYWGQGTTLTVSS VL: DIVMTQSHKFMSTSVGDRVSITCKASQDVSTAVAWYQQKPGQSPKLLIYWASTRHTGVPDRFTGSGSGTDYTLTISSVQAEDLALYYCHQHYSTYTFGGGTKLEIKR
Result: 99.9
